B1: NEUROD6 (parent)
chain: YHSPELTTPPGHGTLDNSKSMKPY

# Variants of: B1
# method: protein stability index of a GFP-peptide fusion (GPS, HEK-293T) (PSI 1-6); higher = more stable;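 note: lentivirally expressed fusions sorted by FACS into six bins by GFP to DsRed ratio, PSI derived from sequencing read proportions per bin multiplied by bin number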
# experimental_setup: c terminus: a fixed tail appended
Overview of recorded protein stability index for various variants
The answer should be a number; do not append a unit.

Example entries and their recorded answers appear below.
mutation_string	outcome_measure	quantitative_readout
L15S	protein stability index	2.35
H2E	protein stability index	5.07
P4G	protein stability index	2.02
G13C	protein stability index	1.99
P9E	protein stability index	2.58
S20C	protein stability index	1.86
D16V	protein stability index	2.18
D16C	protein stability index	2.66
N17T	protein stability index	2.15
G13S	protein stability index	2.19

Exam item: Entry `S20E` : reported protein stability index = ?
Marked response: 2.54

Exam item: Again, but for `Y24N`
Marked response: 2.44
